Origin of the recorded values: patent US20240238425A1

# Test system: HiBiT-HSD17β13 fusion protein (N-terminal HiBiT-tagged HSD17β13 isoform D) in Huh7 HiBiT-HSD17β13 OE cells
# assay_procedure: Whole-cell Huh7-HSD17B13 HiBiT assay (degrader potency and maximal efficacy, luminescence readout)
# Type: cell-based, human
# test_settings: 24 hour incubation, max. concentration 1 μM, geometric mean, * = geometric mean for all forms tested (parent and salt forms)
Structures can show the parent of a compound that is named as a salt.
Catalogue of compounds with associated Huh7_HIBIT-HSD17β13_DC50 GMean Asymptote Maximum
Give your result in % as a bare value.

# Huh7_HIBIT-HSD17β13_DC50 GMean Asymptote Maximum lookup, item "O=C1CCN(c2cnn3cc(CCCN4CC(F)(F)C5(C4)CN(c4ccc6cn([C@H]7CC[C@H](CNC(=O)c8cc(F)c(O)c(F)c8F)CC7)nc6c4)C5)ccc23)C(=O)N1" 80

# Huh7_HIBIT-HSD17β13_DC50 GMean Asymptote Maximum lookup, item Cn1c(=O)n(C2CCC(=O)NC2=O)c2ccc(CCCCNc3ncc(-c4ccc5cn([C@H]6CC[C@H](CNC(=O)c7cc(F)c(O)c(F)c7F)CC6)nc5c4)cn3)cc21 (mixture of isomers) 79

# Huh7_HIBIT-HSD17β13_DC50 GMean Asymptote Maximum lookup, item Cn1c(=O)n(C2CCC(=O)NC2=O)c2ccc(CCCN3CCn4c(-c5ccc6cn([C@H]7CC[C@H](CNC(=O)c8cc(F)c(O)c(F)c8F)CC7)nc6c5)cnc4C3)cc21 (mixture of isomers) [Example 31, trifluoroacetate salt] 85

# Huh7_HIBIT-HSD17β13_DC50 GMean Asymptote Maximum lookup, item Cc1ccc(C(=O)N2CCC3(CCC(CN4CCN(c5ccc6cn([C@H]7CC[C@H](CNC(=O)c8cc(F)c(O)c(F)c8F)CC7)nc6c5)CC4)CC3)CC2)cc1N1CCC(=O)NC1=O [Example 103, trifluoroacetate salt] 76

# Huh7_HIBIT-HSD17β13_DC50 GMean Asymptote Maximum lookup, item Cn1c(=O)n(C2CCC(=O)NC2=O)c2ccc(CCCN3CCN(c4nccc(-c5ncc(C67CCC(CNC(=O)c8cc(F)c(O)c(F)c8F)(CC6)CC7)o5)n4)CC3)cc21 (racemic) 82

---

Catalogue of compounds with associated Huh7_HIBIT-HSD17β13_DC50 GMean Asymptote Maximum
# Test system: HiBiT-HSD17β13 fusion protein (N-terminal HiBiT-tagged HSD17β13 isoform D) in Huh7 HiBiT-HSD17β13 OE cells
# assay_procedure: Whole-cell Huh7-HSD17B13 HiBiT assay (degrader potency and maximal efficacy, luminescence readout)
# Type: cell-based, human
# test_settings: 24 hour incubation, max. concentration 1 μM, geometric mean, * = geometric mean for all forms tested (parent and salt forms)
Counter-ions that a name gives are not always drawn.
Give your result in % as a bare value.

# Huh7_HIBIT-HSD17β13_DC50 GMean Asymptote Maximum lookup, item Cc1ccc(C(=O)N2CCC3(CCC(N4CCN(c5ccc6cn([C@H]7CC[C@H](CNC(=O)c8cc(F)c(O)c(F)c8F)CC7)nc6c5)CC4)CC3)C2)cc1N1CCC(=O)NC1=O (stereo partly drawn) [Example 104, trifluoroacetate salt] 78

Next compound, Huh7_HIBIT-HSD17β13_DC50 GMean Asymptote Maximum to be filled in.
# Huh7_HIBIT-HSD17β13_DC50 GMean Asymptote Maximum lookup, item Cn1c(=O)n(C2CCC(=O)NC2=O)c2ccc(CCN3CCOC4(C3)CN(c3ccc5cn([C@H]6CC[C@H](CNC(=O)c7cc(F)c(O)c(F)c7F)CC6)nc5c3)C4)cc21 (mixture of isomers) [Example 117, trifluoroacetate salt] 79
